System: HT29 colon
Assay: NCI tumour cell line growth inhibition, 48 h
Please go through the items and note down their TGI.

Provide each entry's TGI from the list below.
1. O=C(O)/C=C/n1c2ccccc2c(=O)c2ccccc21
2. CCOc1c(Br)cc(C2C(C(=O)OC)=CN(C)C=C2C(=O)OC)cc1OC
3. Cc1nc(C)c(C(=O)NNC(=O)Cc2ccccc2)cc1C(=O)NNC(=O)Cc1ccccc1
4. COC(=O)C1=C2CCC(=O)[C@@]2(C)C(OC(C)=O)C=CC1 (some centres not stated)
5. O=S(=O)(/C=C/c1ccc(Cl)cc1Cl)Cc1ccccc1CS(=O)(=O)/C=C/c1ccc(Cl)cc1Cl

["> 100 µM", "> 100 µM", "> 100 µM", "> 100 µM", "> 100 µM"]

Provide each entry's TGI from the list below.
1. Cn1c2ccccc2c(=S)c2ccccc21
2. C/C(CC(=O)Nc1ccc(Cl)c(Cl)c1)=N/NC(=O)C[n+]1ccccc1

> 100 µM
> 100 µM

Provide each entry's TGI from the list below.
1. O=C(/C=C(\O)c1ccc(Cl)cc1)C(=O)N=Nc1c(O)[nH]c2ccc(Br)cc12
2. Oc1ccccc1-c1nn(CNc2cccc(Cl)c2)c(=S)o1
3. O=C(Nc1cc(C(=O)Nc2cccc(S(=O)(=O)O)c2)cc(C(=O)Nc2cccc(S(=O)(=O)O)c2)c1)c1cccc(C(=O)Nc2cc(C(=O)Nc3cccc(S(=O)(=O)O)c3)cc(C(=O)Nc3cccc(S(=O)(=O)O)c3)c2)c1
4. Cn1ccnc1C(=O)/C=C/c1ccc(C(=O)Nc2ccc(Cl)cc2)cc1
5. COc1cccc(-c2cc(=O)c3cc(OC)c(OC)cc3[nH]2)c1

1. > 100 µM
2. > 100 µM
3. > 100 µM
4. > 33.3 µM
5. > 100 µM
